- experimentNotes: Clearance in Sprague-Dawley rat at 1 mg/kg, iv by LC-MS/MS analysis
- Type: ADME, organism-based
- conditionSummary: in vivo
parameter: clearance

Cc1noc(C)c1CCOc1ccc(-c2c(C)nc(C)c([C@H](OC(C)(C)C)C(=O)O)c2N2CCC(C)(C)CC2)cc1: 58.9 mL/min/kg
Cc1nc(C)c([C@H](OC(C)(C)C)C(=O)O)c(N2CCC(C)(C)CC2)c1-c1ccc(OCCc2ccc(F)c(F)c2)cc1: 5.8 mL/min/kg
Cc1nc(C)c([C@H](OC(C)(C)C)C(=O)O)c(N2CCC(C)(C)CC2)c1-c1ccc(OC2COCC2c2ccc(F)cc2)cc1 (stereo in doubt; 40b): 23.4 mL/min/kg

# input for lookup
Ask: Return reported clearance; argument: "Cc1nc(C)c([C@H](OC(C)(C)C)C(=O)O)c(N2CCC(C)(C)CC2)c1-c1ccc(OCCc2ccc(F)cc2F)cc1"
Reply: 9 mL/min/kg

Data credit: ChEMBL document CHEMBL5046290
